Biological target: Protein kinase 7 (PK7), Plasmodium falciparum 3D7 (PF3D7_0213400)
Experiment: inhibition of Plasmodium PK7 catalytic activity – biochemical, TCAMS antimalarial set, Kinase-Glo luminescence (AID 1159587)
Settings: recombinant PfPK7, Kinase-Glo ATP depletion luminescence
Calls of active or inactive are those of the source. No rule for the calls is given here.
readout-type: outcome

Please review the following examples before continuing.
{"columns": ["molecule", "outcome"],
 "data": [
  ["CCOC(=O)C1=C(C)NC2=C(C(=O)CC(C)(C)C2)C1c1ccc(Br)cc1 (stereo not given)", "inactive"],
  ["Clc1ccc2c(NN=Cc3cccs3)ccnc2c1", "inactive"],
  ["CN1CCN(c2ccc(Nc3c4ccccc4nc4ccccc34)cc2)CC1", "inactive"],
  ["Cc1noc(=O)c2ccc(NC(=O)C(O)(CSc3ccccc3)CC(C)C)cc12 (stereo not given)", "inactive"]
]}

Next molecule, outcome to be filled in.
Q) Any idea what its outcome is? The molecule is O=C(Nc1cccc(C(F)(F)F)c1)c1cc([N+](=O)[O-])cc2cn[nH]c12
A) inactive

Reference source: PubChem BioAssay
